- Tested on: NCI-H23
- assay_summary: NCI tumour cell line growth inhibition, 48 h
Calls of active or inactive are those of the source. No stated cut-off is given here; in the data, active = GI50 up to about 1.1 µM and inactive = higher.
The reply should name one outcome from active, inactive

Previously resolved entries follow.
{"columns": ["compound", "qualitative_label"],
 "data": [
  ["O=c1cc(/N=N\\c2ccc(Cl)c(Cl)c2)[nH]c(=O)[nH]1", "inactive"],
  ["C[C@@H]1OCC(O)C([C@H]2OC(c3ccccc3)=N[C@H]2CO)O1 (stereo partly specified)", "inactive"],
  ["CC(=O)O/N=C1\\C=Cc2c(no[n+]2[O-])C1=O", "inactive"],
  ["COC(=O)C(CCS(=O)(=O)CC(=O)C(=O)Nc1cccc(C(C)=O)c1)C(=O)OC", "inactive"],
  ["CC(=O)C1C(=O)C(=O)N(c2cccc(C)c2C)C1=O (stereo unspecified)", "inactive"]
]}

Ask: GET /call?item= COC(=O)N/N=C(\c1ccccc1)c1ccc(OC)cc1 returns the recorded outcome of this test.
Reply: inactive

Ask: GET /call?item= CC(=O)c1cc2c(s1)C(=O)c1ccsc1C2=O returns the recorded outcome of this test.
Reply: active

Ask: GET /call?item= O=C1C(N2CCN(c3ccccn3)CC2)=C(Cl)C(=O)c2ncccc21 returns the recorded outcome of this test.
Reply: inactive

Ask: GET /call?item= CCOc1ccc(/C(C=O)=C(\Cl)c2ccc(OC)cc2)cc1 returns the recorded outcome of this test.
Reply: inactive

Ask: GET /call?item= COc1cc2c(cc1OC)C1C=NC(C(=O)O)(C2)c2ccccc21 (stereo unspecified) returns the recorded outcome of this test.
Reply: inactive

Ask: GET /call?item= CC1OC(O)C(O)C(O)C1O (stereo unspecified) returns the recorded outcome of this test.
Reply: inactive

----------
- Tested on: UACC-62
- assay_summary: NCI tumour cell line growth inhibition, 48 h
Calls of active or inactive are those of the source. Cut-off read from the data, not from the text of the source: active = GI50 up to about 1.1 µM and inactive = higher.
readout_kind: GI50

Here is how some molecules turned out for GI50.
{"columns": ["molecule", "result"],
 "data": [
  ["C/N=C(\\N=c1/ss/c(=N\\C)n1C)N(C)C.[O-][Cl+3]([O-])([O-])O", "> 100 µM (inactive)"],
  ["CCC(C)N1CN(c2ccccc2)C2(CCN(CCCC3(c4ccc(F)cc4)OCCO3)CC2)C1=O (stereo not drawn)", "23.3 µM (inactive)"],
  ["O=C1CSC(c2ccccc2[N+](=O)[O-])N1c1ccc(-c2ccc(-n3c(-c4ccccc4)nc4ccccc4c3=O)cc2)cc1 (stereo not drawn)", "36.6 µM (inactive)"],
  ["COc1cccc(/C=N/n2c(C)n[nH]c2=O)c1", "69.3 µM (inactive)"],
  ["CSc1n[nH]c2c1c(C)nn2-c1ccccc1", "> 100 µM (inactive)"]
]}

Please state, for each entry, its recorded GI50.
1. CCOc1cc(C2SCC(=O)N2c2ccc(Oc3ccc(Cl)cc3)c(Cl)c2)ccc1O (stereo not drawn)
2. O=[N+]([O-])C(=C(Nc1cccc2cccnc12)Nc1cccc2cccnc12)C(Cl)=C(Cl)Cl
3. N#C/C(=C/n1c(=S)[nH]c2ccc([N+](=O)[O-])cc21)C(N)=O

Reply:
1. 16.4 µM (inactive)
2. 77.1 µM (inactive)
3. > 100 µM (inactive)

----------
- Test system: SF-539
- assay_summary: NCI tumour cell line growth inhibition, 48 h
Activity calls are given as the source filed them. Rule as the data show it: active = GI50 up to about 1.1 µM and inactive = higher.
The reply should name one outcome from true (active), false (inactive)

Previously resolved entries follow.
{"columns": ["molecule", "qualitative_label"],
 "data": [
  ["Cc1ccc(S(=O)(=O)N2C[C@](O)(c3ccccc3)[C@H]2C)cc1", "false"],
  ["O=[N+]([O-])c1ccc2c(c1)Cc1cc(/N=C/c3ccc4c(c3)OCO4)ccc1-2", "false"],
  ["Fc1cccc(Cl)c1/C=N\\N=C1c2ccccc2-c2ccccc21", "false"]
]}

Ask: GET /call?item= CC(=O)OCC(OC(C)=O)C(OC(C)=O)C(OC(C)=O)C(=O)CNn1c(-c2ccccc2Cl)nc2ccccc2c1=O (centres undefined) returns the recorded outcome of this test.
Reply: false

Ask: GET /call?item= CC(=O)O[C@H]1CCC2[C@@H]3CCC4Nc5[nH]ncc5C[C@]4(C)C3CC[C@@]21C (some centres undefined) returns the recorded outcome of this test.
Reply: false

Ask: GET /call?item= O=C(N/N=C/c1cc(Br)cc(Br)c1O)c1ccccc1O returns the recorded outcome of this test.
Reply: true

Ask: GET /call?item= COc1ccc(/C=C2\CCC(Cc3ccccc3)(CN(C)C)C2=O)cc1 (centres undefined) returns the recorded outcome of this test.
Reply: false

Ask: GET /call?item= COc1cc(/C=C2\CC3C4CC[C@H]5C[C@@H](O)CC[C@]5(C)C4CC[C@]3(C)C2=O)cc(OC)c1OC (some centres undefined) returns the recorded outcome of this test.
Reply: false

Ask: GET /call?item= Cc1ccc(S(=O)(=O)NC2C(=O)c3ccccc3C(=O)C2n2ccnc2)cc1 (centres undefined) returns the recorded outcome of this test.
Reply: false
